# reported drug sensitivity score; entries follow
Tested on: Caco-2
Assay: drug sensitivity score (DSS) for viability; higher = more toxic; extreme values may be limits of the assay
Conditions: 72 h
Quantity: drug sensitivity score

INSERT INTO measurements (compound, observed_result) VALUES
  ('CCCCC[C@H](O)/C=C/[C@H]1[C@H](O)CC(=O)[C@@H]1C/C=C\CCCC(=O)O', 0),
  ('Cc1cc(Nc2cc(CN3CCOCC3)c3nc(C)c(Cc4ccc(Cl)cc4F)n3n2)n[nH]1', 2.3),
  ('NS(=O)(=O)Nc1ncnc(OCCOc2ncc(Br)cn2)c1-c1ccc(Br)cc1', 0),
  ('Cc1cc(C)c(NC(=O)N(Cc2ccc3c(c2)Cc2ccccc2-3)C2CCCCCC2)c(C)c1', 2.3),
  ('Cc1sc2c(c1C)C(c1ccc(Cl)cc1)=N[C@@H](CC(=O)Nc1ccc(OCCOCCOCCOCCNc3cccc4c3C(=O)N(C3CCC(=O)NC3=O)C4=O)cc1)c1nnc(C)n1-2 (some centres not stated)', 12),
  ('C[C@]12CC[C@@H]3c4ccc(O)cc4CC[C@H]3[C@@H]1C[C@@H](O)[C@@H]2O', 0),
  ('Cc1ncc([N+](=O)[O-])n1CC(O)CN1CCOCC1 (configuration not stated)', 0),
  ('CN1CCN(c2ccc(C(=O)Nc3n[nH]c4ccc(Cc5cc(F)cc(F)c5)cc34)c(NC3CCOCC3)c2)CC1', 8.3),
  ('CS(=O)(=O)c1ccc(-c2cc(Br)sc2-c2ccc(F)cc2)cc1', 0),
  ('c1ccc2c(c1)Sc1ccccc1N2C[C@H]1CN2CCC1CC2', 0.3),
  ('CC(=O)O[C@H]1C[C@@H]2CC[C@@H]3[C@H](CC[C@@]4(C)[C@H]3C[C@H](N3CC[N+](C)(C)CC3)[C@@H]4OC(C)=O)[C@@]2(C)C[C@@H]1N1CC[N+](C)(C)CC1', 0),
  ('CC1(CN)Cc2ccccc2C1', 0),
  ('CC(C)(Sc1cc(C(C)(C)C)c(O)c(C(C)(C)C)c1)Sc1cc(C(C)(C)C)c(O)c(C(C)(C)C)c1', 0),
  ('c1ccc(-c2ccc(CNc3nc(-c4ccccn4)nnc3-c3ccccc3)cc2)cc1', 11.2),
  ('NC(=O)c1cnccn1 [pyrazinamide]', 0),
  ('Cn1c2c(c3ccccc31)CCNCC2', 0),
  ('CC(=O)Nc1ccc(CC(=O)O)cc1', 0);
